- Tested on: UWB1 cells
- PROTOCOL_DESCRIPTION: cells
- EXPERIMENTAL_CONDITIONS: read-out: IC50 (μM) UWB1 cells, UWB1 cell viability
QUANTITY_NAME: IC50 (µM)
Form entry: value (µM) — number only.

What does the data say about its IC50? Entry: CCC(C)NC(=O)c1ccc(-c2occc2[C@@H]2C[C@H]3O[C@@H]4[C@@H]5OC(=O)[C@]6(C)C=CC(=O)[C@](C)([C@@H](CC(=O)OC)[C@]4(C)C3=C2C)[C@@H]56)cc1 (some centres unmarked)
0.17

Please do the same for `COC(=O)C[C@H]1[C@]2(C)C3=C(C)CC[C@H]3O[C@@H]2[C@@H]2OC(=O)[C@]3(C)C=CC(=O)[C@@]1(C)[C@@H]23` as well.
1.45

Please do the same for COC(=O)C[C@H]1[C@]2(C)C3=C(C)[C@H](C4=CC(=O)OC4OC(C)=O)C[C@H]3O[C@@H]2[C@@H]2OC(=O)[C@]3(C)C=CC(=O)[C@@]1(C)[C@@H]23 (some centres unmarked) as well.
1.04

Please do the same for `COC(=O)C[C@H]1[C@]2(C)C3=C(C)[C@H](C4CCCCC4)C[C@H]3O[C@@H]2[C@@H]2OC(=O)[C@]3(C)C=CC(=O)[C@@]1(C)[C@@H]23` as well.
0.21
